Please provide measured TGI for the entries that follow.
System: SK-MEL-2 melanoma
Test: NCI tumour cell line growth inhibition, 48 h

GET TGI | system: SK-MEL-2 melanoma | item: `CC(C)=[CH][Sb]([Br])([CH]=C(C)C)([CH]=C(C)C)[CH]=C(C)C` > 100 µM

Report TGI from SK-MEL-2 melanoma testing of COc1cc2c(c(OC)c1OC)-c1ccc(SC)c(=O)cc1C(CC(=O)Oc1ccc([N+](=O)[O-])cc1)C2 (centres undefined) > 48.8 µM

Write down the reported TGI (system: SK-MEL-2 melanoma) of `O=[N+]([O-])C(C(Cl)=C(Cl)Cl)=C(N1CCOCC1)N1CCOCC1` > 100 µM

Using SK-MEL-2 melanoma as the test system, report measured TGI of CC(=O)c1cccc2c1CC1(C2)Cc2ccc3c(c2C1=O)CCC3 (centres undefined) . > 100 µM

Send back SK-MEL-2 melanoma TGI of `Cn1cc(-c2csc(-c3cccc(F)c3)n2)c2cccnc21` only. 55.2 µM

Provide TGI, system SK-MEL-2 melanoma, entry `CCCCCCCCCCCCCCCCOP(=O)(O)Oc1ccc(/C=C\c2ccc(OP(=O)(O)OCCCCCCCCCCCCCCCC)cc2)cc1` > 100 µM

Write down the reported TGI (system: SK-MEL-2 melanoma) of `COc1ccc(-n2cc(-c3cc(OC)c(OC)c(OC)c3)[nH]c2=S)cc1OC` > 100 µM

Param request: TGI | system SK-MEL-2 melanoma | item `Cc1c2c(nn1-c1ccc(S(=O)(=O)/N=C3\SCC(=O)N3C(=O)c3ccccc3)cc1)-c1ccccc1CC2` > 100 µM

Using SK-MEL-2 melanoma as the test system, report measured TGI of `CCOC(=O)/C(O)=C(/C=NC(=S)c1ccncc1)C(=O)OCC` . > 100 µM

* * *

Assign TGI to each entry below.
Test system: SF-539 CNS
Assay: NCI tumour cell line growth inhibition, 48 h
I only need the number, in µM, no unit after it.

Give TGI for the following molecule: C=C1CC[C@@]2(OC1)OC1C[C@H]3[C@@H]4CC=C5C[C@@H](O)CC(OC6OCC(OC(=O)[C@@H](O)[C@@H](C)CC)C(OC(C)=O)C6OC6OC(C)C(O)C(O)C6O)[C@]5(C)[C@H]4CC[C@]3(C)C1[C@@H]2C (stereo partly drawn) 5.21

Report TGI, nothing else, for this molecule: `O=C1SCC(O)=C1/C=N/Nc1nc2ccccc2o1` 40.8

* * *

System: HL-60(TB) leukemia
Assay: NCI tumour cell line growth inhibition, 48 h; in the data active means GI50 below about 0.43 µM; inactive means the rest
Select the matching outcome among active, inactive

Recorded test outcome, item `CC[C@H](C)[C@H](NC(=O)[C@H]1CCCCN1C)C(=O)N(C)[C@H](CCc1nc(C(=O)N[C@@H](Cc2ccccc2)C[C@H](C)C(=O)OC)cs1)C(C)C` active

// return assay outcome for `COc1cccc(NCc2nnc(Nc3ccc(Cl)cc3)c3ccccc23)c1` inactive

Test call for this compound, please: `COc1cc2c(/C=C3/C(=O)Nc4cccc(Cl)c43)c(Cl)n(Cc3ccccc3)c2cc1C` inactive

Short answer needed: outcome of this test for `Cn1cc(-c2csc(-c3cccc(F)c3)n2)c2cccnc21` ? inactive

// param item: `O=C(C[C@@H](C(=O)NCc1cccc(C(F)(F)F)c1)N1C(=O)[C@@H](N2C(=O)OC[C@@H]2c2ccccc2)[C@H]1/C=C/c1ccccc1)NC1CCN(Cc2ccccc2)CC1` ; yields the recorded call inactive

Returns: the outcome recorded for `C=C1C(=O)O[C@H]2[C@H]1CC/C(COC(=O)/C=C\C(=O)NCc1ccc(Cn3c(=O)sn(-c4ccc(C#N)cc4)c3=O)cc1)=C\CC[C@@]1(C)O[C@@H]21` in this assay. inactive

So what was the verdict on `O=C(CCCSc1nc(-c2ccc(Cl)cc2)cc(-c2ccc(Cl)cc2)n1)NO` in this test? inactive

Dear all, I need the recorded test outcome for `Cc1cc(C)cc(Nc2cc(C)nc3nc(C(F)(F)F)nn23)c1` , thank you. inactive

How did this test come out for `COc1cc(Cn2c(-c3ccccc3)cc3c2-c2oncc2CC3)cc(OC)c1OC` ? active

What classification did `COc1ccc(-c2nc(-c3nc4ccc(C)cc4[nH]3)c3ccccn23)cc1` end up with in this test? inactive
